Data origin, for the record: ChEMBL document CHEMBL2375297

compounds and their reported CC50 at 72 h
assay: Cytostatic activity against human Huh5-2 cells after 3 days by MTS method; assay type: cell-based, Huh-5-2
Numeric only. Scale: µM

# SMILES_CODE, CC50 at 72 h, µM
rows = [
    ("CC(=O)OC[C@H]1O[C@@H](n2c(-c3c(C)c4ccccc4oc3=O)nc3ccccc32)[C@H](OC(C)=O)[C@@H]1OC(C)=O", 941),
    ("O=C(O)c1ccc2[nH]c(-c3cc4ccc(I)cc4oc3=O)nc2c1", 118),
    ("Cc1cc2nc(-c3cc4ccccc4oc3=O)[nH]c2cc1C", 23),
    ("COc1cccc2cc(-c3nc4ccc(C)cc4[nH]3)c(=O)oc12", 12),
    ("Cc1cc2nc(-c3cc4cc(Br)ccc4oc3=O)[nH]c2cc1C", 172),
]

Query: What measured CC50 at 72 h goes with `CC(=O)OC[C@H]1O[C@@H](n2c(-c3cc4ccccc4oc3=O)nc3ccccc32)[C@H](OC(C)=O)[C@@H]1OC(C)=O` ?
Reply: 98

Query: What measured CC50 at 72 h goes with `Cc1ccc2[nH]c(-c3cc4ccccc4oc3=O)nc2c1` ?
Reply: 2.3

Query: What measured CC50 at 72 h goes with `Cc1c(-c2nc3ccccc3n2[C@@H]2O[C@H](CO)[C@@H](O)[C@H]2O)c(=O)oc2ccccc12` ?
Reply: 122

Query: What measured CC50 at 72 h goes with `Cc1c(-c2nc3cc(F)ccc3[nH]2)c(=O)oc2ccccc12` ?
Reply: 170

Query: What measured CC50 at 72 h goes with `O=c1oc2ccccc2cc1-c1nc2ccccc2n1[C@@H]1O[C@H](CO)[C@@H](O)[C@H]1O` ?
Reply: 127

Query: What measured CC50 at 72 h goes with `O=c1oc2ccccc2cc1-c1nc2cc(F)ccc2[nH]1` ?
Reply: 13

Query: What measured CC50 at 72 h goes with `Cc1ccc2[nH]c(-c3cc4c(ccc5ccccc54)oc3=O)nc2c1` ?
Reply: 77

Query: What measured CC50 at 72 h goes with `O=c1oc2ccccc2cc1-c1nc2cc3ccccc3cc2[nH]1` ?
Reply: 135

Query: What measured CC50 at 72 h goes with `Cc1c(-c2nc3ccccc3[nH]2)c(=O)oc2ccccc12` ?
Reply: 27

Query: What measured CC50 at 72 h goes with `Cc1cc2nc(-c3c(C)c4ccccc4oc3=O)[nH]c2cc1C` ?
Reply: 77

Query: What measured CC50 at 72 h goes with `O=C(O)c1ccc2[nH]c(-c3cc4cc([N+](=O)[O-])ccc4oc3=O)nc2c1` ?
Reply: 10

Query: What measured CC50 at 72 h goes with `O=C(O)c1ccc2[nH]c(-c3cc4ccccc4oc3=O)nc2c1` ?
Reply: 13

Query: What measured CC50 at 72 h goes with `COc1cccc2cc(-c3nc4cccnc4[nH]3)c(=O)oc12` ?
Reply: 170

Query: What measured CC50 at 72 h goes with `CC(=O)Oc1ccc2c(C)c(-c3nc4ccccc4[nH]3)c(=O)oc2c1` ?
Reply: 153

Query: What measured CC50 at 72 h goes with `Cc1ccc2[nH]c(-c3c(C)c4ccccc4oc3=O)nc2c1` ?
Reply: 29

###

experiment: Selectivity index, ratio of CC50 for human Huh5-2 cells to EC50 for Hepatitis C virus genotype 1b infected in human Huh5-2 cells; format: toxicity, cell-based, Huh-5-2; conditions: read-out: Ratio CC50/EC50
Please enter true where selectivity ratio is greater than or equal to 1, and false where it is lower.

# SMILES_CODE, ASSIGNED_CLASS
records = [
    ("Cc1c(-c2nc3ccccc3n2[C@@H]2O[C@H](CO)[C@@H](O)[C@H]2O)c(=O)oc2ccccc12", "true"),
]

Query: Please indicate if the recorded selectivity ratio for `COc1cccc2cc(-c3nc4cccnc4[nH]3)c(=O)oc12` meets or exceeds 1.
Reply: true

Query: Please indicate if the recorded selectivity ratio for `O=C(O)c1ccc2[nH]c(-c3cc4ccccc4oc3=O)nc2c1` meets or exceeds 1.
Reply: false

Query: Please indicate if the recorded selectivity ratio for `O=c1oc2ccccc2cc1-c1nc2cc3ccccc3cc2[nH]1` meets or exceeds 1.
Reply: true

###

assay: Selectivity index, ratio of CC50 for human Huh5-2 cells to EC50 for Hepatitis C virus genotype 1b infected in human Huh5-2 cells; assay type: toxicity, cell-based, Huh-5-2; details: read-out: Ratio CC50/EC50
We'd kindly ask you to apply these selectivity ratio classes: bottom bin = under 1, middle bin = from 1 up to 2, top bin = 2 and over

Example entries and their recorded answers appear below.
# SMILES_CODE, ASSIGNED_CLASS
rows = [
    ("Cc1c(-c2nc3cc(F)ccc3[nH]2)c(=O)oc2ccccc12", "top bin"),
    ("Cc1ccc2[nH]c(-c3cc4c(ccc5ccccc54)oc3=O)nc2c1", "top bin"),
    ("O=C(O)c1ccc2[nH]c(-c3cc4cc([N+](=O)[O-])ccc4oc3=O)nc2c1", "middle bin"),
    ("CC(=O)OC[C@H]1O[C@@H](n2c(-c3cc4ccccc4oc3=O)nc3ccccc32)[C@H](OC(C)=O)[C@@H]1OC(C)=O", "middle bin"),
]

Query: State the class of the molecule shown: `O=c1oc2ccccc2cc1-c1nc2ccccc2n1[C@@H]1O[C@H](CO)[C@@H](O)[C@H]1O`
Reply: top bin

Query: State the class of the molecule shown: `Cc1cc2nc(-c3cc4cc(Br)ccc4oc3=O)[nH]c2cc1C`
Reply: top bin

Query: State the class of the molecule shown: `Cc1cc2nc(-c3cc4ccccc4oc3=O)[nH]c2cc1C`
Reply: top bin

Query: State the class of the molecule shown: `O=c1oc2ccccc2cc1-c1nc2cc(F)ccc2[nH]1`
Reply: bottom bin

Query: State the class of the molecule shown: `Cc1c(-c2nc3ccccc3[nH]2)c(=O)oc2ccccc12`
Reply: bottom bin

###

molecules and their reported selectivity ratio
experiment: Selectivity index, ratio of CC50 for human Huh5-2 cells to EC50 for Hepatitis C virus genotype 1b infected in human Huh5-2 cells; format: toxicity, cell-based, Huh-5-2; conditions: read-out: Ratio CC50/EC50
Reply with just the number.

# SMILES_CODE, ASSAY_READOUT, MEAS_VALUE
rows = [
    ("Cc1ccc2[nH]c(-c3cc4ccccc4oc3=O)nc2c1", "selectivity ratio", 1),
    ("O=C(O)c1ccc2[nH]c(-c3cc4ccc(I)cc4oc3=O)nc2c1", "selectivity ratio", 1),
    ("CC(=O)Oc1ccc2c(C)c(-c3nc4ccccc4[nH]3)c(=O)oc2c1", "selectivity ratio", 1),
    ("COc1cccc2cc(-c3nc4ccc(C)cc4[nH]3)c(=O)oc12", "selectivity ratio", 1),
]

Query: What measured selectivity ratio goes with `CC(=O)OC[C@H]1O[C@@H](n2c(-c3c(C)c4ccccc4oc3=O)nc3ccccc32)[C@H](OC(C)=O)[C@@H]1OC(C)=O` ?
Reply: 1

Query: What measured selectivity ratio goes with `Cc1cc2nc(-c3c(C)c4ccccc4oc3=O)[nH]c2cc1C` ?
Reply: 2
